- target: T1, RHPN1, Q8TCX5
- T1 sequence (Q8TCX5 508-602, limits assumed, looked up): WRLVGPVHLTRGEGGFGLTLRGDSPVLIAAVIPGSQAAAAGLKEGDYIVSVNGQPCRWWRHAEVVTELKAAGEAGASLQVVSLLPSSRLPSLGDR
- method.description: holdup assay
- Set-up: key: below the threshold = too weak to quantify, mostly under pKd 3.1 to 4
- settings: plain residues with an end cap or a label only (N-terminal biotin on a linker: ahx)
parameter.measured: pKd
One number for each entry.

KDECVIATEV [DLL1, O00548]; 3.95

Record pKd for all entries; do not skip any.
1. HSATSVHTSV [MTMR1, Q13613]
2. KEYDDELTFF [USH1C, Q9Y6N9]

Result block:
1: 4.09; 2: 4.11
